- procedure.details: nuclear p53 accumulation, HPV+ cells – imaging, p53-positive nuclei imaging, 24 h, 48 h (AID 1508601)
- cond: 24/48 h, measured here: cell number at 48 h, Library stock concentration: 1.67 mM
Screen size: about 5,700 compounds; about 85 (1%) were called active. This is one part of a sample in which actives are shown more often than they occur.
assay.readout: nuclei count, normalised (%)
Numeric answer only, unit % assumed.

Here are 6 compounds together with their reported answers.
CS(=O)(=O)N1CCN(Cc2cc3nc(-c4cccc5[nH]ncc45)nc(N4CCOCC4)c3s2)CC1 = 87.3
CN1CCc2c(c3ccccc3n2Cc2ccc(C(=O)NO)cc2)C1 = 110
CC(C)(C)Nc1nc2cc(Cl)c(Cl)cc2nc1S(C)(=O)=O = 106
CN1CCN(c2ccc(Nc3c4ccccc4nc4ccccc34)cc2)CC1 = 81
O=C(O)CCCCCCCCCCCNC(=O)NC12CC3CC(CC(C3)C1)C2 = 103
CN(CCC(Oc1ccc(-c2ccccc2)cc1)c1ccc(F)cc1)CC(=O)O (stereo not drawn) = 104

Input line: Look at this compound and give its reported nuclei count, normalised. Cc1cc(OCCCS(C)(=O)=O)cc(C)c1-c1cccc(COc2ccc3c(c2)OCC3CC(=O)O)c1 (stereo not drawn)
Output line: 104

Input line: Item under review: CNC(=O)c1ccc(Nc2ncc(C(F)(F)F)c(NCc3nccnc3N(C)S(C)(=O)=O)n2)cc1 . Reported nuclei count, normalised?
Output line: 108

Input line: Would you mind telling me what nuclei count, normalised value was observed for Nc1ccccc1NC(=O)c1ccc(CNC(=O)OCc2cccnc2)cc1 ?
Output line: 95.3

====

Below, each of the compounds is paired with its reported p53-positive nuclei, normalised value.
- test.target: Cellular tumor antigen p53 (Homo sapiens) (UniProt P04637)
- Sequence (P04637 whole entry, looked up): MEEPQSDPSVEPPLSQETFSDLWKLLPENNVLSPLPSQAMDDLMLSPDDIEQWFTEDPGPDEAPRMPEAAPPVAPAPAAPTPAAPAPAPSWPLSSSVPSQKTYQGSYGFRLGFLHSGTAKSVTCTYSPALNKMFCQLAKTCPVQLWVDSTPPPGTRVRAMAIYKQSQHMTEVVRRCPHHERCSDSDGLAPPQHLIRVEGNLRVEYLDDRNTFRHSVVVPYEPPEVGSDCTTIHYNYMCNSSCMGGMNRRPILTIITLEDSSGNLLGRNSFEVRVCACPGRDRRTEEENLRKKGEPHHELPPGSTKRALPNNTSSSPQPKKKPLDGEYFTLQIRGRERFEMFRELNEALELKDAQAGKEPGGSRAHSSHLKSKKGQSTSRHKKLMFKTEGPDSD
- procedure.details: nuclear p53 accumulation, HPV+ cells – imaging, p53-positive nuclei imaging, 24 h, 48 h (AID 1508601)
- cond: 24/48 h, measured here: p53 positive nuclei at 24 h, Library stock concentration: 3.33 mM, stronger effect = higher value
The campaign covered roughly 5,700 compounds. About 85 (1%) were called active. Only a selection was taken, and actives are over-represented in it overall.
All answers are understood in %, so give the number only.

Would you please look over these solved cases?
Cc1ncc(-c2ccnc(Nc3ccc(S(C)(=O)=O)cc3)n2)n1C(C)C = 32.5
CC(C)CC(NC(=O)CNC(=O)c1cc(Cl)ccc1Cl)B1OC(=O)CC(CC(=O)O)(C(=O)O)O1 (stereo not given) = 101

Input line: What p53-positive nuclei, normalised value was documented for this compound, COc1ccc(CC(NC(=O)C(C)NC(=O)CN2CCOCC2)C(=O)NC(Cc2ccccc2)C(=O)[C@]2(C)CO2)cc1 (stereo not given in full) ?
Output line: 126

Input line: Data request, read-out p53-positive nuclei, normalised, for CN(C)CCC(CSc1ccccc1)Nc1ccc(S(=O)(=O)NC(=O)c2ccc(N3CCN(Cc4ccccc4-c4ccc(Cl)cc4)CC3)cc2)cc1[N+](=O)[O-] (stereo not given)
Output line: 0.0238

Input line: Return reported p53-positive nuclei, normalised; argument: CC(C)C(=O)Oc1ccc(CO)cc1C(CCN(C(C)C)C(C)C)c1ccccc1 (stereo not given)
Output line: -0.451

Input line: Which measured p53-positive nuclei, normalised value corresponds to COc1cc2ncc(-c3ccccc3)nc2cc1OC ?
Output line: 3.05

====

Measured nuclei count, normalised accompanies every entry in the list below.
- procedure.details: nuclear p53 accumulation, HPV+ cells – imaging, p53-positive nuclei imaging, 24 h, 48 h (AID 1508601)
- cond: 24/48 h, measured here: cell number at 24 h, Library stock concentration: 278 uM
Among all 5,700 compounds or so, about 85 (1%) were called active. The sample holds actives, similar compounds and a random draw of the others, so the mix is not that of the screen.
Your answer is read as %, so omit the unit and give the number.

Solved entries:
CN(CCC(Oc1ccc(-c2ccccc2)cc1)c1ccc(F)cc1)CC(=O)O (centres undefined) = 111
CN1CCN(c2ccc(Nc3c4ccccc4nc4ccccc34)cc2)CC1 = 90.1

Input line: For COc1cc(OC)c2c(=O)[nH]c(-c3cc(C)c(OCCO)c(C)c3)nc2c1 , what is its reported nuclei count, normalised?
Output line: 107

Input line: Data request, read-out nuclei count, normalised, for O=C(O)CCCCCCCCCCCNC(=O)NC12CC3CC(CC(C3)C1)C2
Output line: 105

====

- procedure.details: nuclear p53 accumulation, HPV+ cells – imaging, p53-positive nuclei imaging, 24 h, 48 h (AID 1508601)
- cond: 24/48 h, measured here: cell number at 48 h, Library stock concentration: 2 mM
The campaign covered roughly 5,700 compounds. About 85 (1%) were called active. The list comes from a sample in which actives are over-represented; it also holds close analogues and randomly drawn compounds.
Note: every record was labeled by where its nuclei count, normalised sits among label 0: < 40%; label 1: ≥ 40% and < 90%; label 2: ≥ 90%

Solved cases below.
Fc1cc(-c2ccnc(Nc3ccc(-n4cnc(N5CCOCC5)n4)cc3)n2)cc(N2CCOCC2)c1 = label 1
C#C[C@]1(O)CC[C@@H]2[C@@H]3CCc4cc(O)ccc4[C@@H]3CC[C@@]21C = label 2
CC(C)c1nn(-c2c(Cl)cccc2Cl)c2nc(Cc3ccc(OCCO)cc3)[nH]c(=O)c12 = label 0
O=C(Cc1ccc(-c2ccc(OCCN3CCOCC3)cc2)cn1)NCc1ccccc1 = label 0
CC(=O)NC(CC(C)C)C(=O)NC(CC(C)C)C(=O)NC(C=O)CCCN=C(N)N (centres undefined) = label 1
CC1CCNC(=O)c2cc3ccc(C(=O)Nc4nc5ccccc5n4CCCN(C)C)cc3n21 (centres undefined) = label 2

Input line: Lab note: sort CN1CCN(C(=S)SSC(=S)N2CCN(C)CC2)CC1 into the matching nuclei count, normalised band.
Output line: label 1

Input line: Form field 'band' for CCN1CCN(Cc2ccc(Nc3ncc4c(n3)N(C)c3ccccc3C(=O)N4C)cc2C(F)(F)F)CC1
Output line: label 0

====

- test.target: Cellular tumor antigen p53 (Homo sapiens)
- procedure.details: nuclear p53 accumulation, HPV+ cells – imaging, p53-positive nuclei imaging, 24 h, 48 h (AID 1508601)
- cond: 24/48 h, Library stock concentration: 80 uM
The whole screen tested about 5,700 compounds, of which about 85 (1%) were called active. Cut-off read from the data, not from the text of the source: active = p53-positive nuclei above about 36% (passing the limit was not always enough); inactive = the rest. This excerpt belongs to a sample that is enriched for actives.
Answer with one of the outcomes TRUE = active, FALSE = inactive

A selection of reference data follows.
OC1CCC(Nc2ncc3nc(Nc4c(F)cc(F)cc4F)n(C4CCOC4)c3n2)CC1 (stereo not drawn) = FALSE
C#C[C@]1(O)CC[C@@H]2[C@@H]3CCc4cc(O)ccc4[C@@H]3CC[C@@]21C = FALSE
COC(=O)N1C(=O)[C@](c2ccccc2)(C2CCCC2)N1C(=O)OC = FALSE
CC(C)CC(C(=O)NC(Cc1ccc(OCc2ccccc2)cc1)C(=O)NC(C)(C)C)N(C)Cc1ccc(C(C)(C)C)cc1 (stereo not drawn) = FALSE
OCc1c[nH]c2ccccc12 = FALSE

Input line: So what was the verdict on CC(NC(=O)c1cc(Cl)ccc1Oc1ccc(F)cc1)c1ccc(C(=O)O)cc1 (stereo not drawn) in this test?
Output line: FALSE

Input line: So what was the verdict on O=Nc1c(-c2c(O)[nH]c3cc(Br)ccc23)[nH]c2ccccc12 in this test?
Output line: FALSE

====

- test.target: Cellular tumor antigen p53 (Homo sapiens) (UniProt P04637)
- procedure.details: nuclear p53 accumulation, HPV+ cells – imaging, p53-positive nuclei imaging, 24 h, 48 h (AID 1508601)
- cond: 24/48 h, Library stock concentration: 2 mM, stronger effect = higher value
The campaign covered roughly 5,700 compounds. About 85 (1%) were called active. The entries come from a sample that favours actives as a whole.
assay.readout: p53-positive nuclei, normalised (%)
Kindly provide the numeric value in % only, without the unit symbol.

A selection of reference data follows.
CC(C)N(CCCNC(=O)Nc1ccc(C(C)(C)C)cc1)CC1OC(n2cc(Br)c3c(N)ncnc32)C(O)C1O (stereo not drawn) = 0.291
O=C1SC(=Cc2ccc(OCc3cccc(B(O)O)c3)cc2)C(=O)N1Cc1ccc(F)cc1 = 0.131

Now, please, on to the next compound.
Input line: Entry under review: CN1CCN(c2ccc(Nc3c4ccccc4nc4ccccc34)cc2)CC1 . Reported p53-positive nuclei, normalised?
Output line: 5.16

====

- procedure.details: nuclear p53 accumulation, HPV+ cells – imaging, p53-positive nuclei imaging, 24 h, 48 h (AID 1508601)
- cond: 24/48 h, measured here: cell number at 24 h, Library stock concentration: 3.33 mM
Among all 5,700 compounds or so, about 85 (1%) were called active. This excerpt belongs to a sample that is enriched for actives. Peptide text beside a SMILES is read from it. * marks the point of attachment. Cbz = O=C(OCc1ccccc1)*
Field: class. Source value: nuclei count, normalised. Ranges: low class = under 40%, middle class = from 40% up to 80%, high class = 80% and over

CC(O)[C@H]1C(=O)N2C(C(=O)OCOC(=O)C(C)(C)C)=C(SC3CN(C4=NCCS4)C3)C(C)[C@@H]12 (some centres not stated) = high class
CN(C)c1ccc(C(=O)NCCCCCCC(=O)NO)cc1 = middle class
CC(C)(CO)c1cc2cc(NC(=O)C3(c4ccc5c(c4)OC(F)(F)O5)CC3)c(F)cc2n1CC(O)CO (configuration not stated) = high class
C[C@]1(C(=O)Nc2ccc(F)nc2)CCCN1c1nc(Nc2cc(C3CC3)[nH]n2)c2cccn2n1 = middle class
O=C(O)c1ccc(C=C2SC(=S)N(c3cccc(C(F)(F)F)c3)C2=O)cc1 = middle class

Input line: Which category does the recorded nuclei count, normalised put CC1C[C@H]2[C@@H]3CCC4=CC(=O)C=C[C@]4(C)[C@@H]3C(=O)C[C@]2(C)[C@]1(O)C(=O)CO (some centres not stated) in?
Output line: high class

Input line: Band for O=C(Nc1ccc(-c2ccnc(Nc3ccc(N4CCOCC4)cc3)n2)cc1)C1CCCN1 (configuration not stated) ?
Output line: high class

Input line: Which band does CC(C=CC(=O)NO)=CC(C)C(=O)c1ccc(N(C)C)cc1 (configuration not stated) fall in?
Output line: low class

Input line: Class (by measured nuclei count, normalised) for Nc1ccccc1NC(=O)c1ccc(CNc2nccc(-c3cccnc3)n2)cc1
Output line: middle class

Input line: GET /class?item= O=C1CN2Cc3c(ccc(Cl)c3Cl)N=C2N1
Output line: middle class

Input line: Assign a category based on measured nuclei count, normalised for CN1CC[C@H](c2c(O)cc(O)c3c(=O)cc(-c4ccccc4Cl)oc23)C(O)C1 (some centres not stated) and give only the class name.
Output line: low class

Input line: Each compound maps to one class by nuclei count, normalised. Which class for CC(C)CC(C=O)NC(=O)C(CC(C)C)NC(=O)C(CC(C)C)NC(=O)OCc1ccccc1 (stereo not drawn) (Cbz-Leu-Leu-Leu-aldehyde; configuration not given here) ?
Output line: middle class

Input line: Which of the defined bands does the recorded nuclei count, normalised of COC(=O)[C@]12CCC(C)(C)C[C@@H]1[C@@H]1C(=O)C=C3[C@]4(C)C=C(C#N)C(=O)C(C)(C)[C@@H]4CC[C@@]3(C)[C@]1(C)CC2 sit within?
Output line: low class

Input line: Bin this entry: COC(=O)C1C(O)CC[C@H]2CN3CCc4c([nH]c5ccccc45)[C@@H]3C[C@H]12 (some centres not stated)
Output line: high class
